# tested_on: Mitogen-activated protein kinase 9 (Homo sapiens)
# protocol_text: Inhibition of His6-tagged JNK2 (unknown origin) assessed as reduction in c-Jun phosphorylation using GST-c-Jun (1 to 79 residues) and [gamma32P]ATP incubated for 1 hr by scintillation counting assay
pIC50: −log10 of the molar value.
parameter: pIC50

Query block: Form entry - test system: Mitogen-activated protein kinase 9 (Homo sapiens); read-out: pIC50; molecule: CN(C)c1ccc(-c2n[nH]c3ccc(C(N)=O)cc23)cc1
Result block: 5.00 to 6.00

Query block: Form entry - test system: Mitogen-activated protein kinase 9 (Homo sapiens); read-out: pIC50; molecule: C[C@@H](NC(=O)c1cccc(-c2n[nH]c3ccc(-c4ncn[nH]4)cc23)c1)c1ccccc1
Result block: 5.00 to 6.30

Query block: Form entry - test system: Mitogen-activated protein kinase 9 (Homo sapiens); read-out: pIC50; molecule: C(#Cc1n[nH]c2ccc(-c3nnc[nH]3)cc12)c1ccccc1
Result block: 5.00 to 6.00

Query block: Form entry - test system: Mitogen-activated protein kinase 9 (Homo sapiens); read-out: pIC50; molecule: O=C(NCc1cccnc1)c1cccc(-c2n[nH]c3ccc(-c4ncn[nH]4)cc23)c1
Result block: 5.00 to 6.30

***
Query block: Form entry - test system: Mitogen-activated protein kinase 9 (Homo sapiens); read-out: pIC50; molecule: NC(=O)c1ccc2[nH]nc(-c3cccc(NC(=O)Cc4ccc(F)cc4Cl)c3)c2c1
Result block: 5.00 to 6.00

Query block: Form entry - test system: Mitogen-activated protein kinase 9 (Homo sapiens); read-out: pIC50; molecule: CN(C)CCCNC(=O)c1ccc2[nH]nc(-c3cc4ccccc4o3)c2c1
Result block: 5.00 to 6.00

Query block: Form entry - test system: Mitogen-activated protein kinase 9 (Homo sapiens); read-out: pIC50; molecule: c1n[nH]c(-c2ccc3[nH]nc(-c4ccoc4)c3c2)n1
Result block: 5.00 to 6.00

----------
# tested_on: Mitogen-activated protein kinase 9 (Homo sapiens)
# protocol_text: Inhibition of His6-tagged JNK2 (unknown origin) assessed as reduction in c-Jun phosphorylation using GST-c-Jun (1 to 79 residues) and [gamma32P]ATP incubated for 1 hr by scintillation counting assay
parameter: IC50

Query block: # get_value(readout='IC50', item= O=C(Nc1cccc(-c2n[nH]c3ccc(-c4nc[nH]n4)cc23)c1)c1ccccn1 )
Result block: 0.5 to 10 µM

Query block: # get_value(readout='IC50', item= O=C(Cc1ccccc1)Nc1cccc(-c2n[nH]c3ccc(-c4nnc[nH]4)cc23)c1 )
Result block: 0.5 to 10 µM

Query block: # get_value(readout='IC50', item= CS(=O)(=O)Nc1cccc(-c2n[nH]c3ccc(-c4nnc[nH]4)cc23)c1 )
Result block: 1 to 10 µM

Query block: # get_value(readout='IC50', item= O=C(O)c1ccc(CCc2ccc3[nH]nc(-c4ccc(F)cc4)c3c2)cc1 )
Result block: ≤ 10 µM

Query block: # get_value(readout='IC50', item= O=C(NC1Cc2ccccc2C1)c1cccc(-c2n[nH]c3ccc(-c4ncn[nH]4)cc23)c1 )
Result block: 0.5 to 10 µM

Query block: # get_value(readout='IC50', item= COc1ccc2cc(-c3n[nH]c4ccc(-c5nc[nH]n5)cc34)ccc2c1 )
Result block: 1 to 10 µM

Query block: # get_value(readout='IC50', item= NC(=O)c1ccc2[nH]nc(-c3cccc(NC(=O)Cc4ccc(F)cc4)c3)c2c1 )
Result block: 0.5 to 10 µM

Query block: # get_value(readout='IC50', item= c1csc(-c2n[nH]c3ccc(-c4nnn[nH]4)cc23)c1 )
Result block: 0.5 to 10 µM

***
Query block: # get_value(readout='IC50', item= O=[N+]([O-])c1cccc(/C=C/c2ccc3[nH]nc(-c4ccc(F)cc4)c3c2)c1 )
Result block: ≤ 10 µM

Query block: # get_value(readout='IC50', item= CC(C)(C)OC(=O)CNC(=O)c1ccc2[nH]nc(-c3ccc(F)cc3)c2c1 )
Result block: 1 to 10 µM

Query block: # get_value(readout='IC50', item= O=[N+]([O-])c1ccc2[nH]nc(-c3cccc4ccccc34)c2c1 )
Result block: ≤ 10 µM

Query block: # get_value(readout='IC50', item= CC(C)(C)CNC(=O)c1cccc(-c2n[nH]c3ccc(-c4ncn[nH]4)cc23)c1 )
Result block: 1 to 10 µM

Query block: # get_value(readout='IC50', item= O=C(O)Cc1nnc(-c2ccc3[nH]nc(-c4ccc(F)cc4)c3c2)[nH]1 )
Result block: 1 to 10 µM

Query block: # get_value(readout='IC50', item= O=C(Nc1ccc(F)cc1)Nc1ccc2[nH]nc(-c3ccc(F)cc3)c2c1 )
Result block: ≤ 10 µM

Query block: # get_value(readout='IC50', item= Fc1ccc(-c2n[nH]c3ccc(-c4nc(-c5ccncc5)n[nH]4)cc23)cc1 )
Result block: 1 to 10 µM

Query block: # get_value(readout='IC50', item= Fc1ccc(-c2n[nH]c3ccc(-c4nnc(CN5CCOCC5)o4)cc23)cc1 )
Result block: 1 to 10 µM

Query block: # get_value(readout='IC50', item= O=C(Nc1cccc(-c2n[nH]c3ccc(-c4nc[nH]n4)cc23)c1)c1ccno1 )
Result block: 0.5 to 10 µM

Query block: # get_value(readout='IC50', item= O=C(O)c1ccc2[nH]nc(-c3ccc(F)cc3)c2c1 )
Result block: 1 to 10 µM

Query block: # get_value(readout='IC50', item= COCC(=O)Nc1cccc(-c2n[nH]c3ccc(-c4nnc[nH]4)cc23)c1 )
Result block: 0.5 to 10 µM

Query block: # get_value(readout='IC50', item= c1ccc2oc(-c3n[nH]c4ccc(-c5nc[nH]n5)cc34)cc2c1 )
Result block: 0.5 to 10 µM

Query block: # get_value(readout='IC50', item= NC(=O)c1ccc2[nH]nc(-c3cccc(NC(=O)Cc4ccccc4)c3)c2c1 )
Result block: 0.5 to 10 µM

----------
# tested_on: Mitogen-activated protein kinase 9 (Homo sapiens)
# protocol_text: Inhibition of His6-tagged JNK2 (unknown origin) assessed as reduction in c-Jun phosphorylation using GST-c-Jun (1 to 79 residues) and [gamma32P]ATP incubated for 1 hr by scintillation counting assay
pIC50: −log10 of the molar value.
Property: pIC50; scope: individual compounds

Query block: # get_value(readout='pIC50', item= O=C(Nc1ccc(-c2n[nH]c3ccc(-c4nn[nH]n4)cc23)cc1)c1cccnc1 )
Result block: 5.00 to 6.30

***
Query block: # get_value(readout='pIC50', item= CN(C)Cc1nc(-c2ccc3[nH]nc(-c4cccc(C(=O)N[C@@H]5CCc6ccccc65)c4)c3c2)n[nH]1 )
Result block: 5.00 to 6.30

Query block: # get_value(readout='pIC50', item= Oc1ccc(-c2nnc(-c3ccc4[nH]nc(-c5ccc(F)cc5)c4c3)[nH]2)cc1 )
Result block: 5.00 to 6.00

----------
Property: IC50; scope: individual compounds
# tested_on: Mitogen-activated protein kinase 9 (Homo sapiens, UniProt P45984)
# Sequence (P45984 whole entry, the tested form may be a part): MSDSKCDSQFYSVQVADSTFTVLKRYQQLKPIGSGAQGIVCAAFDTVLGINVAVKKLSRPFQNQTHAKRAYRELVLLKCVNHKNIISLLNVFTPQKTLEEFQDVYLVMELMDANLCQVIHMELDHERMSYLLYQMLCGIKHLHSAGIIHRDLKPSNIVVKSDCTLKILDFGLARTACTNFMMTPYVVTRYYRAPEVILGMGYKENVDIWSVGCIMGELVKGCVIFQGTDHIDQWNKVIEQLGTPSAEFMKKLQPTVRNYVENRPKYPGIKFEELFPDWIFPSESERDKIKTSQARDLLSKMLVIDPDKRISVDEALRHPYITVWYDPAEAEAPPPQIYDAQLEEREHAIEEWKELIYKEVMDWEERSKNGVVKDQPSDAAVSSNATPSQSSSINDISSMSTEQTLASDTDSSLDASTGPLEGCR
# protocol_text: Inhibition of His6-tagged JNK2 (unknown origin) assessed as reduction in c-Jun phosphorylation using GST-c-Jun (1 to 79 residues) and [gamma32P]ATP incubated for 1 hr by scintillation counting assay

Query block: # get_value(readout='IC50', item= O=C(O)C1CCN(C(=O)c2ccc3[nH]nc(-c4ccc(F)cc4)c3c2)CC1 )
Result block: ≤ 10 µM

Query block: # get_value(readout='IC50', item= NC(=O)c1ccc2[nH]nc(-c3cccc(NC(=O)CCN4CCCCC4)c3)c2c1 )
Result block: 1 to 10 µM

Query block: # get_value(readout='IC50', item= CCOC(=O)C1CCN(C(=O)c2ccc3[nH]nc(-c4ccc(F)cc4)c3c2)CC1 )
Result block: ≤ 10 µM

***
Query block: # get_value(readout='IC50', item= O=C(Nc1cccc(-c2n[nH]c3ccc(-c4nc[nH]n4)cc23)c1)[C@@H](O)c1ccccc1 )
Result block: 0.5 to 10 µM

Query block: # get_value(readout='IC50', item= CN1CCN(C(=O)c2cccc(-c3n[nH]c4ccc(-c5ncn[nH]5)cc34)c2)CC1 )
Result block: ≤ 10 µM

----------
# tested_on: Mitogen-activated protein kinase 9 (Homo sapiens)
# protocol_text: Inhibition of His6-tagged JNK2 (unknown origin) assessed as reduction in c-Jun phosphorylation using GST-c-Jun (1 to 79 residues) and [gamma32P]ATP incubated for 1 hr by scintillation counting assay
Property: IC50; scope: individual molecules

Query block: # get_value(readout='IC50', item= COc1ccc2cc(-c3n[nH]c4ccc(C(N)=O)cc34)ccc2c1 )
Result block: 1 to 10 µM

Query block: # get_value(readout='IC50', item= COCCC(=O)Nc1cccc(-c2n[nH]c3ccc(-c4nn[nH]n4)cc23)c1 )
Result block: 0.5 to 10 µM

Query block: # get_value(readout='IC50', item= CN(C)Cc1nnc(-c2ccc3[nH]nc(-c4ccc(F)cc4)c3c2)[nH]1 )
Result block: 0.5 to 10 µM

Query block: # get_value(readout='IC50', item= OC1CCN(Cc2nnc(-c3ccc4[nH]nc(-c5ccc(F)cc5)c4c3)[nH]2)CC1 )
Result block: 1 to 10 µM

Consider the record given below.
Query block: # get_value(readout='IC50', item= CC(C)NC(=O)c1ccc2[nH]nc(-c3cc4ccccc4o3)c2c1 )
Result block: 1 to 10 µM
